- ASSAY_SYSTEM: delta-PH AKT1 (Homo sapiens, UniProt P31749)
- Construct: Insect cells expressing His-tagged AKT1 (aa 136-480) were lysed; His; made in house; host or cells: insect cells
- Sequence (P31749 136-480): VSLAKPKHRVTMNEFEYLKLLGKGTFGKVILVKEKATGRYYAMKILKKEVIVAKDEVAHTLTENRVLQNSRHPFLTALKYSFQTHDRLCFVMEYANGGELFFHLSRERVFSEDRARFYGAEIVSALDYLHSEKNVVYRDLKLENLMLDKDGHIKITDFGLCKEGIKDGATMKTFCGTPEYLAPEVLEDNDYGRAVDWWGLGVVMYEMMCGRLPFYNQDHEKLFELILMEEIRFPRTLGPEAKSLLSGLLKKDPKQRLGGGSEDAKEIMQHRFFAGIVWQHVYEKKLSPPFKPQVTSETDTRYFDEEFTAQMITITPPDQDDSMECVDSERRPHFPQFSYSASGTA
- TEST_SUMMARY: AKT enzyme assay (substrate phosphorylation, SPA), AKT1
- Format: biochemical
- RUN_PARAMETERS: catalytic domain, 10 nM activated enzyme, 4 uM ATP, 8 uM peptide, 40 minutes at room temperature
Structures can show the parent of a compound that is named as a salt.

COMPOUND	ASSAY_SYSTEM	IC50 / µM
CCn1c(-c2nonc2N)nc2c(-c3cccc(Cl)c3)ncc(NCCCNC[C@H](O)CO)c21 [Example 236, trifluoroacetate]	delta-PH AKT1 (Homo sapiens, UniProt P31749)	0.069

====

- ASSAY_SYSTEM: delta-PH AKT2 (Homo sapiens, UniProt P31751)
- Construct: His-tagged AKT2 (aa 138-481) and His-tagged AKT3 (aa 135-479) were isolated; His; made in house; host or cells: insect cells (only by 'in a similar fashion' to AKT1)
- Sequence (P31751 138-481): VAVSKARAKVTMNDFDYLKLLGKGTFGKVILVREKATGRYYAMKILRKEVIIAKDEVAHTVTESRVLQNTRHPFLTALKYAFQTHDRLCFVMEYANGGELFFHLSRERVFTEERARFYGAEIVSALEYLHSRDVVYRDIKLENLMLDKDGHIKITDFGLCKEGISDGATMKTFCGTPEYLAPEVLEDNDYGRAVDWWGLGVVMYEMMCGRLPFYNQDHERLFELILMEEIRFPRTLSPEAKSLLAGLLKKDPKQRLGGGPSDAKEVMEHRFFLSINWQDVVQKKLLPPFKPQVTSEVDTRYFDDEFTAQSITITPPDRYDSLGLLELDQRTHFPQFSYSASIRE
- TEST_SUMMARY: AKT enzyme assay (substrate phosphorylation, SPA), AKT2
- Assay type: biochemical
- RUN_PARAMETERS: catalytic domain, 10 nM activated enzyme, 4 uM ATP, 8 uM peptide, 40 minutes at room temperature
- Description: His-tagged AKT2 (aa 138-481) and His-tagged AKT3 (aa 135-479) were isolated and purified in a similar fashion. Compounds of the present invention were tested for AKT 1, 2, and 3 protein serine kinase inhibitory activity in substrate phosphorylation assays. This assay examines the ability of small molecule organic compounds to inhibit the serine phosphorylation of a peptide substrate. […] Substrate phosphorylation was detected by the following procedure: […]
Counter-ions that a name gives are not always drawn.

MOLECULE	UNIT_ABBREVIATION	IC50
CCn1c(-c2nonc2N)nc2c(-c3cccc(Cl)c3)ncc(NCCCNC[C@H](O)CO)c21 [Example 236, trifluoroacetate]	µM	0.038

====

- ASSAY_SYSTEM: delta-PH AKT3 (Homo sapiens)
- Construct: His-tagged AKT2 (aa 138-481) and His-tagged AKT3 (aa 135-479) were isolated; His; made in house; host or cells: insect cells (only by 'in a similar fashion' to AKT1)
- Sequence (Q9Y243 135-479): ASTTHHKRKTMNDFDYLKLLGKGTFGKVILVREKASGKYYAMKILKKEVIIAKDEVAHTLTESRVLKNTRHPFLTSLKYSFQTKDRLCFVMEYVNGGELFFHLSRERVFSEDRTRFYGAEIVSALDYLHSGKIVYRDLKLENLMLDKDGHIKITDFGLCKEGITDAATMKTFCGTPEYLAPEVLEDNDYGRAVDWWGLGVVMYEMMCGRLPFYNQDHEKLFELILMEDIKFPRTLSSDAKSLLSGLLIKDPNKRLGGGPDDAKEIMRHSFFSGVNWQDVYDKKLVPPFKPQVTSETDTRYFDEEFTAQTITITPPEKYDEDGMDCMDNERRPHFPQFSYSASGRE
- TEST_SUMMARY: AKT enzyme assay (substrate phosphorylation, SPA), AKT3
- Assay type: biochemical
- RUN_PARAMETERS: catalytic domain, 10 nM activated enzyme, 4 uM ATP, 8 uM peptide, 40 minutes at room temperature
Where a name gives a salt, the structure may show the parent alone.
QUANTITY_MEASURED: IC50

COMPOUND	VALUE_OBSERVED
CCn1c(-c2nonc2N)nc2c(-c3cccc(Cl)c3)ncc(NCCCNC[C@H](O)CO)c21 [Example 236, trifluoroacetate]	0.032 µM

Data provenance is patent US20080255143A1.
